experiment: Solubility of Rec 15/2739 free base in various vehicles (Table 2); assay type: physicochemical; conditions: aqueous buffer; PBS pH 6.7
measured.parameter: solubility (µg/mL)
Answer format: numeric, µg/mL implied, no suffix.

Inquiry: # return recorded solubility for input `COc1ccccc1N1CCN(CCCNC(=O)c2cccc3c(=O)c(C)c(-c4ccccc4)oc23)CC1`
Reply text: 5.2

----------
assay: pKa of alpha blockers (Table 1); assay type: physicochemical; settings: read-out: pKa
measured.parameter: pKa

Inquiry: # return recorded pKa for input COc1ccccc1N1CCN(CCCNC(=O)c2cccc3c(=O)c(C)c(-c4ccccc4)oc23)CC1 [Rec 15/2739]
Reply text: 7
